Tested on: OVCAR-5 ovarian
Experiment: NCI tumour cell line growth inhibition, 48 h
readout.type: TGI

CC1=NN(C(=O)Cc2ccccc2)C(=O)/C1=C\c1ccc(O)cc1 = > 100 µM
COc1ccc(OC)c(/C=C/c2nc(=S)n(-c3ccc(Cl)cc3)[nH]2)c1 = > 100 µM
O=C(CC(NC(=O)C(F)(F)F)C(=O)O)OCc1ccccc1 (configuration not stated) = > 100 µM
N#C/C(=C\c1cc(OCc2ccccc2)c(OCc2ccccc2)cn1)C(N)=O = > 100 µM
Nc1ncnc2c1N=C(c1ccc3c(c1)OCO3)CC(c1ccc(Cl)cc1)N2 (configuration not stated) = 90.7 µM

Data request: Param readout = TGI; param system = OVCAR-5 ovarian; param query = COc1ccc2sc3c(NCCCN)nc4ccccc4c3c(=O)c2c1 ; response: value
Data returned: 3.28 µM

Data request: Record: CCn1cc(C(=O)O)c(=O)c2cc(F)c(N3CCN(S(=O)(=O)c4cccc5ccccc45)CC3)cc21
Data returned: > 100 µM
